Reference source for all entries: PubChem BioAssay

PROTOCOL_SUMMARY: probe aNOTCH2 binding on compound microarray – biochemical, small-molecule microarray, 635/667 nm fluorescence, primary screen (AID 1121);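 note: score merges feature fluorescence read at 667 nm with its signal to noise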
MEASUREMENT_PARAMETERS: higher = more signal
// composite z-score lookup, one value per entry
Reply briefly: the number, and no unit.

As a guide, the following entries are already answered.
{"columns": ["COMPOUND", "composite z-score"],
 "data": [
  ["O=C1NC(=O)C2C1C=CC(C(O)c1ccc(I)cc1)N2Nc1ccc(Cl)cc1Cl (stereo not drawn)", 0.127],
  ["C=CC[C@]1(C(N)=O)N=C(c2ccc(OCCCO)cc2)O[C@H]1c1ccccc1", 0.102],
  ["CC(C)C(=C=CC[C@H](O)c1ccc(CO)o1)CCO", -0.148],
  ["CCN(CC)c1ccc(N2CC=CC34O[C@@H]5/C=C\\CCC(C)OC(=O)C5[C@H]3C(=O)N(CCCCCO)[C@@H]4C2=O)cc1 (stereo partly drawn)", -0.19],
  ["CCCNC(=O)[C@@]1(Sc2ccc(C)cc2)CC(=O)N(Cc2ccccc2C(F)(F)F)[C@@H]1c1ccc(CO)cc1I", -0.123]
]}

Memo: [N-]=[N+]=Nc1ccccc1C[C@]1(C(=O)NCC(O)CO)N=C(c2ccc(OCCCO)cc2)O[C@H]1c1ccccc1 (stereo partly drawn) , reported composite z-score: -0.14

The recorded composite z-score for O=C1C[C@@](C(=O)NCc2ccccc2)(c2ccc([N+](=O)[O-])cc2)[C@@H](c2ccc(CO)cc2)N1CC12CC3CC(CC(C3)C1)C2 is -0.14

Sure, the documented composite z-score for C=CCN1C(=O)[C@]2(Cc3ccccc3)N=C(c3ccc(OCCCO)cc3)O[C@@H]2c2ccccc21 is -0.0029

----------
Entries and their composite z-score values follow.
System: Sonic hedgehog protein (Shh)
PROTOCOL_SUMMARY: Sonic hedgehog microarray binding compounds – biochemical, small-molecule microarray, 635/667 nm fluorescence, primary screen (AID 1151);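 note: Shh protein binding to compounds spotted on small-molecule microarray slides; score combines spot fluorescence intensity with signal-to-noise across triplicate slides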
MEASUREMENT_PARAMETERS: 635 nm fluorescence, higher = more signal
Please respond with just the number, no unit label.

The examples below pair each entry with its known result.
{"columns": ["COMPOUND", "SYSTEM", "composite z-score"],
 "data": [
  ["COc1ccc([Si](C)(C)[C@H]2[C@H](CCO)O[C@@]3(C(=O)N(Cc4ccccc4)c4ccc(N5CCCCC5=O)cc43)[C@@H]2C)cc1", "Sonic hedgehog protein (Shh)", 0.929],
  ["COC(=O)[C@@]1(Cc2ccccc2)[C@H]2c3cc(C(=O)N4CCCC4)n(Cc4ccc(O)c(OC)c4)c3C[C@H]2CN1C(=O)c1ccccc1", "Sonic hedgehog protein (Shh)", -1.39],
  ["CCCC(=O)N(CCc1c[nH]c2ccccc12)[C@@H]1CC(C(=O)NCCO)=C[C@H](Oc2c(I)cc(CO)cc2OC)[C@H]1O", "Sonic hedgehog protein (Shh)", -0.251],
  ["CCCCCCCCCCC(O)C1C=CC2C(=O)NC(=O)C2N1Nc1ccc(Cl)cc1Cl (stereo not drawn)", "Sonic hedgehog protein (Shh)", -0.349],
  ["O=C1[C@H]2C=C(Br)[C@H](C[C@@H]2OCCCCCCO)[C@@]12CO2", "Sonic hedgehog protein (Shh)", 0.129]
]}

Field composite z-score (entry CC(C)[Si](C#C[Si](C(C)C)(C(C)C)C(C)C)(O[C@H](C)c1cn(Cc2ccccc2)nn1)C(C)C ) reads 0.372

Consider O=C(CS)NCCCCCNC(=O)[C@H]1C[C@H]2C(=O)NCC(=O)N2[C@H]1c1cccc(OCCO)c1 . Its measured composite z-score is 0.27

Sample CC(C)CN1C(=O)[C@@]2(c3ccc([N+](=O)[O-])cc3)CC(=O)N(C3CCCCC3)[C@@H]2c2ccc(CO)cc21 ; composite z-score observed: -0.939

----------
PROTOCOL_SUMMARY: plasmodial surface anion channel blockers, osmotic lysis – cell-based, P. falciparum Indochina, OD700, 18 h, primary screen (AID 1157)
MEASUREMENT_PARAMETERS: P. falciparum Indochina infected erythrocytes, osmotic lysis OD700, 18 h; higher = more signal, called active from +8 up or from −8 down
Attribute: z-score
Quick one: just the number, no unit, thanks!

{"columns": ["MOLECULE", "MEASURED_PARAMETER", "NUMERIC_RESULT"],
 "data": [
  ["COC(=O)[C@@]1(Cc2ccccc2)[C@H]2c3cc(C(=O)N(C)C)n(CCc4c[nH]c5ccc(O)cc45)c3C[C@H]2CN1C(=O)c1ccccc1", "z-score", -1.32],
  ["C=CCNC(=O)[C@@H]1[C@H]2C(=O)O[C@H](c3ccccc3)[C@H](c3ccccc3)N2[C@H](c2ccc(OCCO)cc2)[C@@]12C(=O)N(C(=O)OCCOC)c1ccc(C#CCC(C(=O)OC)C(=O)OC)cc12", "z-score", 0.581],
  ["CC(C)Cc1ccc(CN2CC[C@@H](N)C2)cc1", "z-score", 0.525],
  ["C=CCNC(=O)[C@H]1[C@@H]2C(=O)O[C@@H](c3ccccc3)[C@@H](c3ccccc3)N2[C@@H](c2ccc(O)cc2)[C@]12C(=O)Nc1ccc(C#CCCO)cc12", "z-score", 0.443]
]}

Field z-score (entry O=c1cccc(-c2ccccc2Cl)o1 ) reads 0.414

Value of measured z-score for the entry CC1CC/C=C\[C@H]2OC34C=CCN(c5ccc6ccccc6c5)C(=O)[C@H]3N(CCO)C(=O)[C@@H]4C2C(=O)O1 (some centres not stated) : 0.357

Reported z-score for O=C1OCCC=C[C@H]2OC34C=CCN(Cn5nnc6ccccc65)C(=O)[C@H]3N(CCO)C(=O)[C@@H]4C12 (some centres not stated) was 0.601

----------
SYSTEM: Torsin-1A (Homo sapiens)
PROTOCOL_SUMMARY: torsin A mutant lysate binding on microarrays – cell lysate, small-molecule microarray, COS7 lysate, 635/667 nm fluorescence, primary screen (AID 1150);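 note: score pools 667 nm emission and signal to noise measuring lysate protein binding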
MEASUREMENT_PARAMETERS: COS7 hTOR1A mutant lysate, 635 nm fluorescence, higher = more signal
Measured composite z-score, listed per entry.
// print number alone

{"columns": ["COMPOUND", "MEASURED_PARAMETER", "NUMERIC_RESULT"],
 "data": [
  ["COc1ccc(C(O)C2C=CC3C(=O)N(C)C(=O)C3N2NC(=O)OC(C)(C)C)c2ccccc12 (stereo not given)", "composite z-score", 0.644],
  ["COc1ccc([C@H]2C[C@H]3C(Br)=C[C@@]2(CO)C(=O)[C@]32CO2)cc1", "composite z-score", -0.83],
  ["O=C1OCC=C[C@H]2OC34C=CCN(CCN5CCOCC5)C(=O)[C@H]3N(CCO)C(=O)[C@@H]4[C@@H]12 (stereo not given in full)", "composite z-score", -0.61],
  ["CCCC=C(CCC)[C@@H](NS(=O)(=O)c1ccc(Cl)cc1)c1ccc(C(=O)OC)cc1", "composite z-score", 1.38]
]}

Next up:
Looking up CC(C)[C@@H](C(=O)O)n1cc(C2(O)CCCCC2)nn1 , I found its composite z-score recorded as 0.404

----------
Property: composite z-score; scope: individual compounds
System: Plasmodium falciparum Sir2 (PF13_0152, Sir2A)
PROTOCOL_SUMMARY: Plasmodium falciparum Sir2A binding compounds – biochemical, small-molecule microarray, 635 nm fluorescence, primary screen (AID 1098);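 note: score merges spot fluorescence intensity with its signal-to-noise ratio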
MEASUREMENT_PARAMETERS: fluorescence 635 nm, higher = more signal
Kindly provide the number alone.

{"columns": ["COMPOUND", "composite z-score"],
 "data": [
  ["CS(=O)(=O)CCOC(=O)C1=CC(CCCO)=CC(c2ccc(CN3CCCC3)cc2)N(Cc2cccc(OC(F)(F)F)c2)C=C1C(=O)OCCS(C)(=O)=O (centres undefined)", 1.02]
]}

Given item CCCCCCc1nc(-c2ccc(-c3ccc(Cl)c(Cl)c3)o2)cc2c1[Si](C(C)C)(C(C)C)O[C@H]2c1ccccc1 , the value recorded as its composite z-score is 0.0593

Query CC(C)CN1C(=O)[C@@]2(c3ccc([N+](=O)[O-])cc3)CC(=O)N(C3CCCCC3)[C@@H]2c2ccc(CO)cc21 yields composite z-score of 0.103

Reported composite z-score of CC(=O)Nc1cc(Br)ccc1C(=O)NCc1ccccc1 : 0.695

----------
# composite z-score per record follows
Test system: Neuregulin-1 EGF-like domain
PROTOCOL_SUMMARY: small molecules binding NRG1 EGF domain – biochemical, small-molecule microarray, 635 nm fluorescence, primary screen (AID 1081);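 note: binding of the protein to compounds printed on small-molecule microarray slides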
MEASUREMENT_PARAMETERS: higher = more signal
Please reply with the number alone, leaving off any unit.

Worked examples follow.
{"columns": ["MOLECULE", "NUMERIC_RESULT"],
 "data": [
  ["CCCCN1CC=CC23O[C@@H]4C=CCOC(=O)[C@@H]4[C@H]2C(=O)N(CCCCCCO)[C@@H]3C1=O (some centres undefined)", 1.3],
  ["COc1ccc([Si](C)(C)[C@@H]2[C@@H](CCO)O[C@]3(C(=O)N(Cc4cccc(N5CCOC5=O)c4)c4ccccc43)[C@H]2C)cc1", 0.953],
  ["CCCCC(O)C1C=CC2C(=O)N(C)C(=O)C2N1N1CCCCC1 (centres undefined)", 1.42]
]}

molecule [N-]=[N+]=Nc1ccccc1C[C@]1(C(=O)N2CCCCC2)COC(c2ccc(OCCCO)cc2)=N1 , composite z-score observed: 0.995
